This collection of values is drawn from PubChem BioAssay AID492974.

measurement-target: Aspartyl aminopeptidase (Plasmodium falciparum (isolate 3D7))
protocol-details: inhibition of purified P. falciparum M18AAP – biochemical, fluorescence, powder samples, assay provider, late-stage follow-up (AID 492974)
condition-description: recombinant PfM18AAP, H-Glu-NHMec fluorogenic substrate; at 5 µM; active compounds read high
experimental-endpoint: inhibition (%)
Give the value, in units of %, as a plain number.

Short answer please: inhibition, Aspartyl aminopeptidase (Plasmodium falciparum (isolate 3D7)), entry CS(=O)(=O)c1ccc2c(c1)sc1nc(=O)c(/C=C3/C=CC(=O)C(O)=C3)c(N)n12
55

Moving on to O=c1c(O)c(-c2ccc(O)c(O)c2)oc2cc(O)cc(O)c12
43

Moving on to CC1(C)CC(=O)c2c(oc3cc(O)c(O)cc23)C1
29

Moving on to COc1ccc(Cl)cc1NC(=O)Nn1cnnc1
22

Moving on to Oc1ccc(-c2csc(-c3ccccc3)n2)cc1O
90

Moving on to O=C(Nc1cc(Cl)ccc1Cl)Nn1cnnc1
54

* * *

measurement-target: Aspartyl aminopeptidase (Plasmodium falciparum (isolate 3D7)) (UniProt Q8I2J3)
Sequence (Q8I2J3 whole entry, looked up): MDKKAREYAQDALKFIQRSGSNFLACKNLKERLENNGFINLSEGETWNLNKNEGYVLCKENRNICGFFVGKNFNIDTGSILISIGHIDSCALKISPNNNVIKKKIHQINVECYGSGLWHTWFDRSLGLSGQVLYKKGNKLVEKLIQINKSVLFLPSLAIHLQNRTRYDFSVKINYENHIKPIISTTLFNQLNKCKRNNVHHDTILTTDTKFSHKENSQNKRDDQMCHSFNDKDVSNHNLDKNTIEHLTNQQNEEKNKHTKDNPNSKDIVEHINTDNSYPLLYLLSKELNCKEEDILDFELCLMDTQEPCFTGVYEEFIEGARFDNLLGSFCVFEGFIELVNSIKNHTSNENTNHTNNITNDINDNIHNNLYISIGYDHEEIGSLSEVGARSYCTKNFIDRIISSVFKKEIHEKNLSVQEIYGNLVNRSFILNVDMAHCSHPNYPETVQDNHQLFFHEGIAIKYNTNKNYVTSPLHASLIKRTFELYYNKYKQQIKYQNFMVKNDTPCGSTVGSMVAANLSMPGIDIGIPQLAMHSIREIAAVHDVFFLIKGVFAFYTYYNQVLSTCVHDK
protocol-details: inhibition of purified P. falciparum M18AAP – biochemical, fluorescence, powder samples, assay provider, late-stage follow-up (AID 492974)
condition-description: recombinant PfM18AAP, H-Glu-NHMec fluorogenic substrate; at 5 µM
Active and inactive are the calls of the source.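 How the source made its calls: active means inhibition of the enzyme above 50%; inactive means the rest.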
Form entry, call: pick from active, inactive

Give the logged outcome of this assay for the following molecule: Cc1ccc(NC(=S)Nn2cnnc2)c(C)c1
inactive

Moving on to O=[N+]([O-])c1cc([N+](=O)[O-])c2cccnc2c1Oc1ccccc1O
inactive

Moving on to COc1cccc2c(SCC(=O)N/N=C/c3ccc(O)c(O)c3)cc(C)nc12
active

Moving on to COc1cccc(-c2cc(C(=O)Nn3cnnc3)c3ccccc3n2)c1
inactive

Moving on to COc1ccc2nc(C)cc(SCC(=O)N/N=C/c3ccc(O)c(O)c3)c2c1
active

Moving on to COC(=O)CN(n1cnnc1)S(=O)(=O)c1ccc(C)cc1
inactive

Moving on to COC(=O)CN(n1cnnc1)S(=O)(=O)c1ccccc1Cl
inactive

Moving on to O=C(Nc1cccc(C(F)(F)F)c1)Nn1cnnc1
inactive

Moving on to O=C(O)c1ccc(O)c(O)c1
inactive

Moving on to COC(=O)CN(n1cnnc1)S(=O)(=O)c1ccccc1
inactive

Moving on to COc1cc([N+](=O)[O-])ccc1NC(=O)Nn1cnnc1
inactive

Moving on to O=C(Nc1ccc([N+](=O)[O-])cc1)Nn1cnnc1
active

* * *

measurement-target: Aspartyl aminopeptidase (Plasmodium falciparum (isolate 3D7))
protocol-details: inhibition of purified P. falciparum M18AAP – biochemical, fluorescence, powder samples, assay provider, late-stage follow-up (AID 492974)
condition-description: recombinant PfM18AAP, H-Glu-NHMec fluorogenic substrate; at 5 µM; active compounds read high
experimental-endpoint: inhibition (%)
Give the value, in units of %, as a plain number.

Param item = CCOC(=O)C1=C(CS(=O)(=O)c2ccc(F)cc2)NC(=O)NC1c1ccc(O)c(O)c1 (configuration not stated) ; retrieve measured inhibition.
58

Moving on to COc1cc(Br)cc(/C=N/c2ncn[nH]2)c1O
0

Moving on to CC1(C)CC2(CC(c3ccccc3F)c3ccc(O)c(O)c3O2)NC(=S)N1 (configuration not stated)
50

Moving on to O=C(Nc1ccccc1Cl)Nn1cnnc1
35

Moving on to O=C(Nc1cccc(Cl)c1Cl)Nn1cnnc1
29

Moving on to Cc1cc(C)cc(C(=O)n2cnnc2N)c1
0

Moving on to Cc1cc(C)n2c(=S)[nH]nc2n1
30

Moving on to Nc1nncn1C(=O)CCCOc1ccc(Cl)cc1Cl
0

Moving on to CCc1ccccc1NC(=S)Nn1cnnc1
6

Moving on to Cc1cc(OCC(=O)Nn2cnnc2)ccc1Br
55

Moving on to NCCc1ccc(O)c(O)c1
40

Moving on to Cc1cccc(NC(=S)Nn2cnnc2)c1C
13

Moving on to Cc1ccc(Cl)cc1NC(=O)Nn1cnnc1
35

Moving on to Cc1ccc(-n2c(O)c(/C=N/n3cnnc3)c3ccccc3c2=O)cc1
18

Moving on to Oc1ccc(-c2cn3ccccc3n2)cc1O
42

Moving on to OC(Cn1cnnc1)c1ccccc1 (configuration not stated)
19

Moving on to O=C(CSc1ncn[nH]1)OCN1C(=O)c2ccccc2C1=O
0

Moving on to Cc1ccc(Cl)cc1NC(=S)Nn1cnnc1
17

Moving on to Br/C(C=Nn1cnnc1)=C\c1ccccc1
17

Moving on to Cc1ccc([N+](=O)[O-])cc1-c1[nH]c(-c2ccc(O)c(O)c2)nc1-c1ccccc1
83

Moving on to CCC(C)c1ccc(O)c(N)c1 (configuration not stated)
65

Moving on to S=C(Nc1cc(Cl)ccc1Cl)Nn1cnnc1
24

Moving on to Cc1nc2ccccn2c1C(=O)NNC(=O)Nc1ccccc1
11

Moving on to Cc1nc(-c2ccc(O)c(O)c2)cs1
74

Moving on to O=C(CSc1ncn[nH]1)Nc1nc(-c2ccccc2)ns1
7

Moving on to O=C(Nc1ccc(Cl)c(Cl)c1)Nn1cnnc1
63

Moving on to Oc1ccc(C2=Nn3c(nnc3-c3ccco3)SC2)cc1O
52

* * *

Could you please report measured inhibition for the items listed next?
measurement-target: Aspartyl aminopeptidase (Plasmodium falciparum (isolate 3D7))
protocol-details: inhibition of purified P. falciparum M18AAP – biochemical, fluorescence, powder samples, assay provider, late-stage follow-up (AID 492974)
condition-description: recombinant PfM18AAP, H-Glu-NHMec fluorogenic substrate; at 5 µM; active compounds read high
The source made the active and inactive calls.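 How the source made its calls: active means inhibition of the enzyme above 50%; inactive means the rest.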

Param item = O=C(CSc1nc2ccccc2c(=O)[nH]1)c1ccc(O)c(O)c1 ; retrieve measured inhibition.
10% (inactive)

Moving on to Cc1c(Cl)cccc1NC(=O)Nn1cnnc1
10% (inactive)

Moving on to O=S(=O)(Nn1cnnc1)c1ccccc1
10% (inactive)
